system: MV4-11 cells; assay: Leukemia cell proliferation inhibition test (ATPlite), MV4-11; type: cell-based; conditions: MV4-11, 72 hours culture, ATPlite; GI50 per method; read-out: MV4-11 cell proliferation inhibition effect
pIC50: −log10 of the molar value.
The following compounds are listed with their measured pIC50 values.

Sample records with pIC50:
[
  {
    "compound": "CCCNc1nc(Nc2ccc(C(N)=O)cc2)ncc1C#Cc1cccc(NC(=O)[C@H](C)N(C)C(=O)/C=C/CN(C)C)c1",
    "value-reported": "> 8.00"
  },
  {
    "compound": "CCCNc1nc(Nc2ccc(C(N)=O)cc2)ncc1C(=O)N[C@H]1CCC[C@H](Nc2ccccc2NC(=O)/C=C/CN(C)C)C1",
    "value-reported": "7.00 to 8.00"
  },
  {
    "compound": "CCCNc1nc(Nc2cccc(F)c2)ncc1C#CCCCNC(=O)[C@@H]1CCCN1C(=O)/C=C/CN(C)C [Compound 8-15]",
    "value-reported": "6.00 to 7.00"
  },
  {
    "compound": "CCCNc1nc(Nc2cccc(F)c2)ncc1C#CCCCNC(=O)[C@@H]1CCCN1C(=O)/C=C/CN(C)C [Compound 7-45]",
    "value-reported": "> 8.00"
  }
]

Entry CCCNc1nc(Nc2ccc(C(N)=O)cc2)ncc1C(=O)N[C@@H]1CCC[C@H](Nc2ccccc2NC(=O)/C=C/CN(C)C)C1 , pIC50 reported as 6.00 to 7.00

---

molecular target: human FLT3 protein (FLT3 (WT)) (Homo sapiens, UniProt P36888); construct: human FLT3 protein (intracellular region, 564 to 993 aa); GST; purchased Carna Biosciences; host or cells: baculovirus expression system; test: FLT3 inhibition test (FLT3 enzyme inhibition, time-resolved fluorescence of substrate peptide phosphorylation); type: biochemical; details: FLT3 (WT); read-out: FLT3 (WT) enzyme inhibition activity
Sequence (P36888 564-993): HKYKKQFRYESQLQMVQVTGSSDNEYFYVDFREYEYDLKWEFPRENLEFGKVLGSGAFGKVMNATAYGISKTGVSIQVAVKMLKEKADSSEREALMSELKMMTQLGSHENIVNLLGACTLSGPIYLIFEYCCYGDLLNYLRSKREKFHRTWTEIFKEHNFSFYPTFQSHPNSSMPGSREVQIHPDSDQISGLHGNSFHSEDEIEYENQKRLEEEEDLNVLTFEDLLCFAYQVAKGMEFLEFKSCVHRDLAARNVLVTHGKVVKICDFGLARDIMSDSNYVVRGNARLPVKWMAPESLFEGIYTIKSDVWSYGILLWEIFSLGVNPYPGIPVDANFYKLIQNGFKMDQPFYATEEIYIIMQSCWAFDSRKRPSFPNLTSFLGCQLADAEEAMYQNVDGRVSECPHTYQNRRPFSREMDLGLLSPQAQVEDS
The following compounds are listed with their measured IC50 values.

Sample records with IC50:
[
  {
    "smiles-record": "CCCNc1nc(Nc2cnc3c(c2)c(C)nn3CCOC)ncc1C#CCCCNC(=O)[C@H](C)N(C)C(=O)/C=C/CN(C)C",
    "measure": "IC50",
    "value-reported": "< 0.01 µM"
  },
  {
    "smiles-record": "CCCNc1ncc(C#CCCCNC(=O)[C@H](C)N(C)C(=O)/C=C/CN(C)C)c(Nc2ccc(OC)cc2)n1",
    "measure": "IC50",
    "value-reported": "< 0.01 µM"
  },
  {
    "smiles-record": "CCCNc1nc(Nc2ccc3c(cnn3CCOC)c2)ncc1C#CCCCNC(=O)[C@H](C)N(C)C(=O)/C=C/CN(C)C",
    "measure": "IC50",
    "value-reported": "< 0.01 µM"
  }
]

Note: attention shifts to another entry.
Entry C[C@@H](C(=O)N[C@H]1CCC[C@@H](C#Cc2cnc(Nc3ccc(F)cc3)nc2NC2CC2)C1)N(C)C(=O)/C=C/CN(C)C , IC50 reported as < 0.01 µM

---

The following molecules are listed with their measured IC50 values.
target: human FLT3 protein (FLT3 (WT)) (Homo sapiens, UniProt P36888); construct: human FLT3 protein (intracellular region, 564 to 993 aa); GST; purchased Carna Biosciences; host or cells: baculovirus expression system; experiment: FLT3 inhibition test (FLT3 enzyme inhibition, time-resolved fluorescence of substrate peptide phosphorylation); format: biochemical; conditions: GST-fused human FLT3 (564 to 993 aa), ATP 50 μM; read-out: FLT3 (WT) enzyme inhibition activity

[
  {
    "molecule": "C[C@@H](C(=O)NCCCC#Cc1cnc(Nc2ccc(F)c(F)c2)nc1NC1CC1)N(C)C(=O)/C=C/CN(C)C [Compound 21-2]",
    "IC50": "< 10 nM"
  },
  {
    "molecule": "CCCNc1nc(Nc2ccc(C(N)=O)cc2)ncc1C(=O)Nc1cccc(NC(=O)[C@H](C)N(C)C(=O)/C=C/CN2CCNCC2)c1 [Compound 4-1]",
    "IC50": "< 10 nM"
  },
  {
    "molecule": "CNc1nc(Nc2ccc(F)cc2)ncc1C#CCCCNC(=O)[C@@H]1C[C@@H](O)CN1C(=O)/C=C/CN(C)C [Compound 7-85]",
    "IC50": "< 10 nM"
  }
]

Entry C=CC(=O)NCC(=O)NCCNC(=O)c1cnc(NCCc2ccncc2)nc1NCCC [Compound 2-18] , IC50 reported as 10 to 100 nM

Entry CCCNc1nc(NCCc2ccncc2)ncc1C(=O)Nc1cccc(NC(=O)CNC(=O)/C=C/CN2CCN(CCO)CC2)c1 [Compound 2-16] , IC50 reported as < 10 nM

Entry CCCNc1nc(Nc2ccc(C(=O)N(C)C)cc2)ncc1C#CCCCNC(=O)[C@H](C)N(C)C(=O)/C=C/CN(C)C [Compound 7-15] , IC50 reported as 10 to 100 nM

Entry C=CC(=O)NCC(=O)Nc1cccc(C#Cc2cnc(Nc3ccc(C(N)=O)cc3)nc2NCCC)c1 [Compound 8-3] , IC50 reported as < 10 nM

---

The following compounds are listed with their measured IC50 values.
target: human FLT3 protein (FLT3 (WT)) (Homo sapiens); construct: human FLT3 protein (intracellular region, 564 to 993 aa); GST; purchased Carna Biosciences; host or cells: baculovirus expression system; assay: FLT3 inhibition test (FLT3 enzyme inhibition, time-resolved fluorescence of substrate peptide phosphorylation); format: biochemical; conditions: GST-fused human FLT3 (564 to 993 aa), ATP 50 μM; read-out: FLT3 (WT) enzyme inhibition activity

Sample records with IC50:
[
  {
    "compound": "C=CC(=O)N(C)CC(=O)NC(CC)CCNC(=O)c1cnc(NCCc2ccncc2)nc1NCCC (stereo not shown) [Compound 1-7]",
    "value-reported": "< 10 nM"
  },
  {
    "compound": "CCCNc1nc(Nc2ccc(C#N)c(F)c2)ncc1C#CCCCNC(=O)[C@H](C)N(C)C(=O)/C=C/CN(C)C [Compound 9-25]",
    "value-reported": "< 10 nM"
  },
  {
    "compound": "CCCNc1nc(Nc2ccc(OC)nc2)ncc1C#CCCCNC(=O)[C@H](C)N(C)C(=O)/C=C/CN(C)C [Compound 7-23]",
    "value-reported": "< 10 nM"
  }
]

Note: attention shifts to another entry.
Entry C=CC(=O)NC(C)(C)C(=O)NCCCNC(=O)c1cnc(Nc2ccc3cnccc3c2)nc1NCCC [Compound 6-7] , IC50 reported as < 10 nM

---

molecular target: human FLT3 protein (FLT3 (WT)) (Homo sapiens); construct: human FLT3 protein (intracellular region, 564 to 993 aa); GST; purchased Carna Biosciences; host or cells: baculovirus expression system; assay: FLT3 inhibition test (FLT3 enzyme inhibition, time-resolved fluorescence of substrate peptide phosphorylation); type: biochemical; conditions: GST-fused human FLT3 (564 to 993 aa), ATP 50 μM; read-out: FLT3 (WT) enzyme inhibition activity
The following compounds are listed with their measured IC50 values.

Sample records with IC50:
[
  {
    "smiles-record": "CCCNc1nc(Nc2ccc(C#N)cc2)ncc1C#C[C@@H]1CCC[C@H](NC(=O)[C@H](C)N(C)C(=O)/C=C/CN(C)C)C1",
    "study-system": "human FLT3 protein (FLT3 (WT)) (Homo sapiens)",
    "IC50": "< 10 nM"
  },
  {
    "smiles-record": "Cc1ccc(Nc2nc(Nc3ccc(C#N)cc3)ncc2C#CCCCNC(=O)[C@H](C)N(C)C(=O)/C=C/CN(C)C)cc1",
    "study-system": "human FLT3 protein (FLT3 (WT)) (Homo sapiens)",
    "IC50": "< 10 nM"
  }
]

Note: attention shifts to another entry.
Entry CCCNc1nc(Nc2ccnc(OC)c2)ncc1C#CCCCNC(=O)[C@@H]1CCCN1C(=O)/C=C/CN(C)C , IC50 reported as < 10 nM

---

Target: human FLT3 protein (FLT3 (WT)) (Homo sapiens)
Construct: human FLT3 protein (intracellular region, 564 to 993 aa); GST; purchased Carna Biosciences; host or cells: baculovirus expression system
Assay: FLT3 inhibition test (FLT3 enzyme inhibition, time-resolved fluorescence of substrate peptide phosphorylation)
Type: biochemical
Settings: GST-fused human FLT3 (564 to 993 aa), ATP 50 μM; read-out: FLT3 (WT) enzyme inhibition activity
Method: The FLT3 inhibition test was performed for the compounds of the present invention by the method described below. A reaction mixture in a volume of 9 μL containing the FLT3 protein and a test compound of a predetermined concentration (1.2 μg of FLT3, 100 mM HEPES, 10 mM MgCl2, 25 mM NaCl, 0.01% BSA, 1 mM DTT, pH 7.5) was left standing at 25° C. for 15 minutes. […]
pIC50: −log10 of the molar value.
measure: pIC50

Sample records with pIC50:
[
  {
    "molecule": "C=CC(=O)N(C)CC(=O)Nc1cccc(NC(=O)c2cnc(NCCc3ccncc3)nc2NCCC)c1 [Compound 1-3]",
    "pIC50": "> 8.00"
  },
  {
    "molecule": "CCCNc1nc(Nc2cccc(OC(F)(F)F)c2)ncc1C#CCCCNC(=O)[C@H](C)N(C)C(=O)/C=C/CN(C)C [Compound 11-10]",
    "pIC50": "> 8.00"
  },
  {
    "molecule": "C[C@@H](C(=O)NCCCC#Cc1cnc(Nc2cncc(F)c2)nc1NC1CC1)N(C)C(=O)/C=C/CN(C)C [Compound 9-22]",
    "pIC50": "> 8.00"
  },
  {
    "molecule": "CNc1ncc(C#C[C@H]2C[C@@H](NC(=O)[C@H](C)N(C)C(=O)/C=C/CN(C)C)C2)c(Nc2ccc(OC)cc2)n1 [Compound 13-21]",
    "pIC50": "> 8.00"
  },
  {
    "molecule": "CNc1nc(Nc2ccc(F)cc2)ncc1C#CCCCNC(=O)[C@@H]1CCN1C(=O)/C=C/CN(C)C [Compound 7-86]",
    "pIC50": "> 8.00"
  },
  {
    "molecule": "C=CC(=O)NCC(=O)N1CCC(NC(=O)c2cnc(NCCc3ccncc3)nc2NCCC)CC1 [Compound 6-19]",
    "pIC50": "7.00 to 8.00"
  },
  {
    "molecule": "CCCNc1nc(Nc2ccc(C#N)cc2)ncc1C#CCCC(=O)NCCN(C)C(=O)/C=C/CN(C)C [Compound 8-22]",
    "pIC50": "> 8.00"
  },
  {
    "molecule": "CCCNc1nc(Nc2cccc3c2cnn3C)ncc1C#CCCCNC(=O)[C@H](C)N(C)C(=O)/C=C/CN(C)C [Compound 21-5]",
    "pIC50": "6.00 to 7.00"
  }
]

Tested on human FLT3 protein (FLT3 (WT)) (Homo sapiens), the item CCCNc1nc(Nc2cccc(F)c2)ncc1-c1cn(CCNC(=O)[C@H](C)N(C)C(=O)/C=C/CN(C)C)nn1 [Compound 17-2] showed pIC50 equal to > 8.00
